# test_protocol: folding stability dG unfold (combined trypsin and chymotrypsin); higher = more stable
Listed here: items and their measured folding stability dG unfold.
Supply the numeric figure in kcal/mol, leaving out any unit text.

residue_sequence="SAGGKTVTTPEQILELIKENPGKTYTITITVPKENQKKVEELKKALEEAGLTVEENENGTLTVTIKPSAGGS [r16_335_TrROS_Hall]" recorded_value=3.42

// next item, folding stability dG unfold requested
For SAMELEFETDGSVSVEELIEEFKKAFPLVKEIEAEAEPIPYIPKYKVRFKIKLVPVPTPEEIEEFGKKKSAG [r14_645_TrMRF] , what is its reported folding stability dG unfold?
1.2
